System: RPMI-8226
Procedure text: NCI tumour cell line growth inhibition, 48 h
The source made the active and inactive calls. Rule as the data show it: active = GI50 up to about 1.1 µM and inactive = higher.
Measure: GI50

Exercise: Given the molecule C=C(C(=O)OCC)C(=O)OCC , what is its reported GI50?
Key: > 100 µM (inactive)

Exercise: Another molecule to look at: CSc1c(C#N)c(O)nc(N)c1C(=O)Nc1ccc(C)cc1
Key: > 100 µM (inactive)

Exercise: Okay, and CC(C)(C)c1cc(Cc2ccc([N+](C)(C)C)cc2)c(O)c(C(C)(C)C)c1 ?
Key: 14.8 µM (inactive)

Exercise: Another molecule to check: COC1=CC(=O)C=C(OC)C1=O [2,6-DIMETHOXYQUINONE]
Key: 6 µM (inactive)

Numbers sourced from ChEMBL document CHEMBL1201862.
